Test system: MS2 coat protein
Assay: apparent Kd, MS2 coat protein; higher = weaker binding; RNA-MaP array; FMN 200 µM where present
Conditions: designed as: OFF switch for flavin mononucleotide; no ligand
We begin with a simple list: items and their reported apparent Kd.
Dear colleague, please return just the value in µM, with no unit written.

GCAGUGUCAGGAUAUAGUUCGAGUUCGGAAAUGAGCUUGAGCUAGAAGGGACAUGAGGAUCACCCAUGUGCUGU :: 0.038
GCAGGAUAAGUGAGGAUAUACCUAUGGAUACAUAGGUAGAAGGCACAUGAGGAUCACCCAUGUUCCUUGCCUGC :: 0.013
AGUUCUUGUGAAGGAUAUACGGCGGGUCGCGCAGUAGAAGGUCACAUGAGGAUCACCCAUGUCGACAUUGUGCAGUAUCGACAA :: 0.0829

// fetch apparent Kd; item: `ACAUGAGGAUCACCCAUGUAUUUGUAGGAUAUACUGUAUUGUUUAUUACUCUAAUUAAUAUGUUUGUAGAAGGACAUUGCAUGA` ; system: MS2 coat protein
0.00839

====

Tested on: MS2 coat protein
Assay: apparent Kd, MS2 coat protein; higher = weaker binding; RNA-MaP array; FMN 200 µM where present
Settings: ligand present: flavin mononucleotide; designed as: OFF switch for flavin mononucleotide
We begin with a simple list: items and their reported apparent Kd.
Dear colleague, please return just the value in nM, with no unit written.

Here is how some sequences turned out for apparent Kd.
GGAUGACAAAGUCAUCCAUAACGAACAUGAGGAUCACCCAUGUAGGAUAUGCUAGUCAAAGACUAGCAGAAGGACAUGUGUCUU :: 146
UUAUUAUAUGUAGGAUAUGCAUAUUAUUAUUAUGCAGAAGGACAUGAGGAUCACCCAUGUAUAUUAUUAUUAUAUAUUAUAUGU :: 86.1
CCCUCACAUGAGGAUCACCCAUGUCAGGAUAUCUCACAUCGGCCUUAGGCCAAUGUCAAGAGAAGGGACGUAUC :: 33.9
CGGUACUUAGGAUAUACAUGAGGAUCACCCAUGUAGAAAUGGUGGGUGCCGUCCUGUGGUAGAAGGAAGAAUCG :: 50.2
GAAUGUCGGGUAGGAUAUGACUUGCCACGGAGGUCAGAAGGGCCACGACAUGAGGAUCACCCAUGUACUGUAUUCCUUUUUCAA :: 98.1

Provide apparent Kd value for the following sequence: `GUGUACGUAGGAUAUGCUGGAAUCUAGCGAAGCUAGGUUCCACAUGAGGAUCACCCAUGUAGAAGGGCGUACAC`
47.1

Provide apparent Kd value for the following sequence: `UGUCGGAGCAGAGGAUAUUACAUGAGGAUCACCCAUGUAUGAAUCAAUAGCUGGAAACAGCAAUGUAAGAAGGCUGCUCCGACA`
26.6

Provide apparent Kd value for the following sequence: `CCGACUUACUAGGAUAUCAGAGUCGAAAGACUCUGAGAAGGAGUAACAUGAGGAUCACCCAUGUGUCCUAUCGG`
77.7

====

We begin with a simple list: items and their reported apparent Kd.
Tested on: MS2 coat protein
Experiment: apparent Kd, MS2 coat protein; higher = weaker binding; RNA-MaP array; FMN 200 µM where present
Conditions: ligand present: flavin mononucleotide; designed as: OFF switch for flavin mononucleotide
Dear colleague, please return just the value in nM, with no unit written.

Here is how some sequences turned out for apparent Kd.
UUAGGAUCAGGAUAUGAUGUUUUAAACAUGAGGAUCACCCAUGUAGAUCCUGAAUCAACAUCAGAAGGGAUAAUUU :: 184
CUAGCAACAUGAGGAUCACCCAUGUAGGAUAUCGCUAUUGUAAUCAUGAAACAUGAUUACAAUAGCGAGAAGGACAUAUGCUAU :: 9.83
CUGAGCUGAGGAUAUACAUGAGGAUCACCCAUGUGGGCCUGCGAGGUUACUUGCACAUGUAGAAGGCAGUUCGG :: 17.2
UGUCUCAGAGGAUAUACAGGUGUAGAUCCUUUAGACCCUUGACAUGAGGAUCACCCAUGUAGAAGGCUGCAGAC :: 26.4
AUUAUGACCGAGUAAAGCUUCAAAACAUGAGGAUCACCCAUGUAGGAUAUCAGCACGAUAAGUGCUGAGAAGGACAUCUCGGUC :: 15.1

// moving on: another record for apparent Kd
Provide apparent Kd value for the following sequence: `GGAUUACAUGAGGAUCACCCAUGUGAGGAUAUCGAUGUCCUGGGUGGAGUGCGGGACUCGAGAAGGCACUUGGA`
229

This collection of values is drawn from the EternaBench riboswitch data.
